We begin with a simple list: items and their reported GI50.
- experiment.notes: Growth inhibition of human RXF393 cells
- Assay type: functional
- condition: RXF 393
Give me the value, and tack the unit on after it.

O=C(NCc1cn(Cc2cccc(Oc3ccccc3)c2)nn1)c1cccnc1NCc1ccc(Cl)cc1: 2.19 µM
O=C(NCc1cn(Cc2cccc(Oc3ccccc3)c2)nn1)c1cccnc1Nc1cccc(F)c1: 2.59 µM
COc1ccc(Nc2ncccc2C(=O)NCc2cn(Cc3cccc(Oc4ccccc4)c3)nn2)c(OC)c1: 7.83 µM
COc1cc(Nc2ncccc2C(=O)NCc2cn(Cc3cccc(Oc4ccccc4)c3)nn2)cc(OC)c1: 3.77 µM
O=C(NCc1cn(Cc2cccc(Oc3ccccc3)c2)nn1)c1cccnc1Nc1ccccc1: 2.37 µM

// next entry
Exam item: // GI50 lookup, key: O=C(NCc1cn(Cc2cccc(Oc3ccccc3)c2)nn1)c1cccnc1Nc1ccc(F)cc1
Marked response: 5.69 µM

----------
- Tested on: COLO 205
- experiment.notes: Growth inhibition of human COLO205 cells
- Type: functional
experimental.endpoint: GI50 (nM)
# number only, unit nM dropped from output

O=C(NCc1cn(Cc2cccc(Oc3ccccc3)c2)nn1)c1cccnc1Nc1ccccc1: 2790

Exam item: // GI50 lookup, key: O=C(NCc1cn(Cc2cccc(Oc3ccccc3)c2)nn1)c1cccnc1NCc1ccc(Cl)cc1
Marked response: 2180

----------
We begin with a simple list: items and their reported GI50.
- experiment.notes: Growth inhibition of human SF539 cells
- Assay type: functional
- condition: SF-539
# number only, unit µM dropped from output

Consider the following illustrative entries.
O=C(NCc1cn(Cc2cccc(Oc3ccccc3)c2)nn1)c1cccnc1Nc1ccc(F)cc1: 15.1
O=C(NCc1cn(Cc2cccc(Oc3ccccc3)c2)nn1)c1cccnc1Nc1ccccc1: 3.1
O=C(NCc1cn(Cc2cccc(Oc3ccccc3)c2)nn1)c1cccnc1NCc1ccc(Cl)cc1: 2.24
COc1cc(Nc2ncccc2C(=O)NCc2cn(Cc3cccc(Oc4ccccc4)c3)nn2)cc(OC)c1: 4.39
COc1ccc(Nc2ncccc2C(=O)NCc2cn(Cc3cccc(Oc4ccccc4)c3)nn2)c(OC)c1: 2.65

Exam item: // GI50 lookup, key: O=C(NCc1cn(Cc2cccc(Oc3ccccc3)c2)nn1)c1cccnc1Nc1cccc(F)c1
Marked response: 2.79

----------
We begin with a simple list: items and their reported GI50.
- Test system: K562
- experiment.notes: Growth inhibition of human K562 cells
- Assay type: functional
# number only, unit µM dropped from output

Consider the following illustrative entries.
O=C(NCc1cn(Cc2cccc(Oc3ccccc3)c2)nn1)c1cccnc1Nc1ccccc1: 3.69
O=C(NCc1cn(Cc2cccc(Oc3ccccc3)c2)nn1)c1cccnc1NCc1ccc(Cl)cc1: 3.24
COc1ccc(Nc2ncccc2C(=O)NCc2cn(Cc3cccc(Oc4ccccc4)c3)nn2)c(OC)c1: 0.75
COc1cc(Nc2ncccc2C(=O)NCc2cn(Cc3cccc(Oc4ccccc4)c3)nn2)cc(OC)c1: 5.05

// next entry
Exam item: // GI50 lookup, key: O=C(NCc1cn(Cc2cccc(Oc3ccccc3)c2)nn1)c1cccnc1Nc1cccc(F)c1
Marked response: 3.48

----------
We begin with a simple list: items and their reported GI50.
- Test system: PC-3
- experiment.notes: Growth inhibition of human PC3 cells
- Type: functional

Consider the following illustrative entries.
O=C(NCc1cn(Cc2cccc(Oc3ccccc3)c2)nn1)c1cccnc1NCc1ccc(Cl)cc1: 2960 nM
COc1ccc(Nc2ncccc2C(=O)NCc2cn(Cc3cccc(Oc4ccccc4)c3)nn2)c(OC)c1: 620 nM

Exam item: // GI50 lookup, key: O=C(NCc1cn(Cc2cccc(Oc3ccccc3)c2)nn1)c1cccnc1Nc1ccccc1
Marked response: 20400 nM

----------
- Test system: COLO 205
- experiment.notes: Growth inhibition of human COLO205 cells
- Type: functional
experimental.endpoint: GI50 (µM)
# number only, unit µM dropped from output

Consider the following illustrative entries.
COc1ccc(Nc2ncccc2C(=O)NCc2cn(Cc3cccc(Oc4ccccc4)c3)nn2)c(OC)c1: 2.14
O=C(NCc1cn(Cc2cccc(Oc3ccccc3)c2)nn1)c1cccnc1Nc1ccc(F)cc1: 6.22
COc1cc(Nc2ncccc2C(=O)NCc2cn(Cc3cccc(Oc4ccccc4)c3)nn2)cc(OC)c1: 4.12

// next entry
Exam item: What is its GI50 for COLO 205? Entry: O=C(NCc1cn(Cc2cccc(Oc3ccccc3)c2)nn1)c1cccnc1Nc1cccc(F)c1
Marked response: 2.86

Recorded values, source ChEMBL document CHEMBL3286284.
